testDescription: reduced cellular PGC1a acetyl-lysine signal – cell-based, cherry-picked samples, dose response (AID 720514);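 further: actives lower the acetylation signal so they count as inhibitors of PGC1a acetylation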
statedConditions: U2OS PGC1a acetylation, AlphaLISA, overnight; series mostly up to 19.5 µM
The whole screen tested about 2,100 compounds, of which about 300 (14%) were called active. About 2% were inconclusive and are not listed. These entries were drawn from the full list. Results with a measured potency or affinity are listed apart.
recordedEndpoint: outcome

Take a look at these entries with their results.
compound: CCOc1ccccc1NC(=O)CSc1cn[nH]n1
outcome: inactive

compound: Cc1ccc(S(=O)(=O)NC(CC(C)C)C(=O)N2CCCCCCC2)cc1 (stereo not given)
outcome: inactive

compound: Cc1ccc(-n2cccn2)c(CN2CCCC(C(=O)c3sccc3C)C2)c1 (stereo not given)
outcome: inactive

compound: Cc1c(C(=O)NCCSCc2c(F)cccc2Cl)cnn1-c1ccc(Cl)cc1
outcome: inactive

compound: CN1OC(COC(=O)c2ccccc2)CC1c1ccccc1 (stereo not given)
outcome: inactive

compound: CC1(Cc2ccc(Cl)cc2)C(=O)Nc2c(Cl)ccc(Cl)c21 (stereo not given)
outcome: inactive

Query: Annotate the compound `CC(C)(C)C(=O)Nc1sc2c(c1-c1nc3ccccc3[nH]1)CCCC2` with its measured outcome.
Result: inactive

Query: Annotate the compound `CC(=O)c1ccc(N2CCN(c3ccc(S(=O)(=O)NCCCN(C)C)cc3[N+](=O)[O-])CC2)cc1` with its measured outcome.
Result: inactive

Query: Annotate the compound `CC(=O)c1ccc(N2CCN(c3ccc(S(=O)(=O)NCCN(C)C)cc3[N+](=O)[O-])CC2)cc1` with its measured outcome.
Result: inactive

Query: Annotate the compound COc1cccc(CN2C[C@@H]3N[C@H](C2)C3c2ccc(-c3ccccc3F)cc2)c1 (stereo not given in full) with its measured outcome.
Result: inactive
